# STUDY_SYSTEM: human glycine transporter 2 (GlyT2 or SLC6A5) (Homo sapiens, UniProt Q9Y345)
# Construct: expressed in transfected cells; host or cells: Xenopus laevis oocytes injected with cRNA
# Sequence (Q9Y345 1-797): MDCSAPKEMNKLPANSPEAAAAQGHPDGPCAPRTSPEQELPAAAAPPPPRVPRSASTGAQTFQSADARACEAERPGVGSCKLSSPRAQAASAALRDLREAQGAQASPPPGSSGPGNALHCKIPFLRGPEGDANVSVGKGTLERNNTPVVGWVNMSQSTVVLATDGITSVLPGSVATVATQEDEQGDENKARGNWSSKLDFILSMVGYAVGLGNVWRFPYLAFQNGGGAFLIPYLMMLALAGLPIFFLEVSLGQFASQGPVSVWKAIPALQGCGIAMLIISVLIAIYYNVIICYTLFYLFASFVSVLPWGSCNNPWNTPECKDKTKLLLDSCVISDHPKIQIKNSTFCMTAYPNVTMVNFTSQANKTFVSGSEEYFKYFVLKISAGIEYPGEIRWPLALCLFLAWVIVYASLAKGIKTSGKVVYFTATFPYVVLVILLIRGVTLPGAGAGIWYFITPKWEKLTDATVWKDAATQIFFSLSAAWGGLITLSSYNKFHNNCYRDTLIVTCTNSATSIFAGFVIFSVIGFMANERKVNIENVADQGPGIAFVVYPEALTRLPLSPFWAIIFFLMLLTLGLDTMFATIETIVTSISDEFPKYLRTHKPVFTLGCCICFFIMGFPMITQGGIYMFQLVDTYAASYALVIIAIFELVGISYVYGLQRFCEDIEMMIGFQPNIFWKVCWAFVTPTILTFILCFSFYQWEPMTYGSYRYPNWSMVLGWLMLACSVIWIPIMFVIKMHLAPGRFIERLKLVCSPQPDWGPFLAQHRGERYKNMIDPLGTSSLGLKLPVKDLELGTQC
# ASSAY_REMARKS: Inhibition of glycine transport currents, two-electrode voltage clamp in oocytes expressing WT GlyT2
# Type: cell-based
# CONDITION_SET: L-Head group stereochemistry; GlyT2
MEASUREMENT_NAME: % Maximal inhibition (%)

INSERT INTO measurements (compound, measurement_name, endpoint_value) VALUES
  ('CCC=CCCCCCCCCCCCC(=O)NC(CCCCN)C(=O)O (stereo not shown)', '% Maximal inhibition', 94.9),
  ('CCCCC=CCCCCCCCCCCCC(=O)NC(CCCCN)C(=O)O (stereo not shown)', '% Maximal inhibition', 81.3),
  ('CCCCCCC=CCCCCCCCC(=O)NC(CCCCN)C(=O)O (stereo not shown)', '% Maximal inhibition', 90.2),
  ('CCCCC=CCCCCCCCC(=O)NC(CCCCN)C(=O)O (stereo not shown)', '% Maximal inhibition', 96.2);
